Molecular target: T1, ZFP SBS#718 (synthetic)
T1 chain: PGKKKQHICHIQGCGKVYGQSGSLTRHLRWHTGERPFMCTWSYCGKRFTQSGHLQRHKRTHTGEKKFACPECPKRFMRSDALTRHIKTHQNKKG
Assay: EMSA
Details: tags: MBP fusion
measure-name: pKd
Answers are plain numbers, as −log10 of the molar value.

*Q* Find the measured pKd of TTGGGAGCAC (dsDNA) DNA 1: TTGGGAGCAC DNA 2: GTGCTCCCAA and report it.
*A* 6.97
